These data points were gathered from patent US11059801B2.

- tested-on: CRBN-DDB1/BRD4 (Homo sapiens (Human), UniProt O60885+Q96SW2)
- assay-remarks: CRBN-DDB1/BRD4 Dimerization Assay
- Format: binding
- condition: Gaussian fit parameter of dimerization signal
readout: Dimer SD

Known Dimer SD results, listed for orientation:
compound | Dimer SD
CC[C@@H]1C(=O)N(C)c2cnc(Nc3ccc(C(=O)NCCCOCCOCCOCCCNC(=O)COc4cccc5c4C(=O)N(C4CCC(=O)NC4=O)C5=O)cc3OC)nc2N1C1CCCC1 (stereo partly drawn) [dBET10] | 0.5165
Cc1sc2c(c1C)C(c1ccc(C#N)cc1)=N[C@@H](CC(=O)NCCCCNC(=O)COc1cccc3c1C(=O)N(C1CCC(=O)NC1=O)C3=O)c1nnc(C)n1-2 (stereo partly drawn) [dBET17] | 0.7258
Cc1sc2c(c1C)C(c1ccc(Cl)cc1)=N[C@@H](CC(=O)NCCOCCOCCNC(=O)COc1cccc3c1C(=O)N(C1CCC(=O)NC1=O)C3=O)c1nnc(C)n1-2 (stereo partly drawn) [dBET24] | 0.6531
Cc1c(C(=O)NCCCCNC(=O)COc2cccc3c2C(=O)N(C2CCC(=O)NC2=O)C3=O)sc2c1C(c1ccc(Cl)cc1)=N[C@@H](CC(=O)NCCCN1CCN(C)CC1)c1nnc(C)n1-2 (stereo partly drawn) [dBET30] | 0.8533
Cc1sc2c(c1C)C(c1ccc(Cl)cc1)=N[C@@H](CC(=O)NCCCOCCOCCOCCCNC(=O)COc1cccc3c1C(=O)N(C1CCC(=O)NC1=O)C3=O)c1nnc(C)n1-2 (stereo partly drawn) [dBET9] | 0.5198

(1) Cc1sc2c(c1C)C(c1ccc(Cl)cc1)=N[C@@H](CC(=O)NCCNC(=O)COc1cccc3c1C(=O)N(C1CCC(=O)NC1=O)C3=O)c1nnc(C)n1-2 (stereo partly drawn) [dBET3]
(2) COc1cc(C(=O)NCCCCNC(=O)COc2cccc3c2C(=O)N(C2CCC(=O)NC2=O)C3=O)ccc1Nc1ncc2c(n1)N(C)c1ccccc1C(=O)N2C (stereo not drawn) [dBET11]
Lower value of Dimer SD belongs to which: 1 or 2 ? Answer with the label corresponding to your selection.
1

----------
Listed compounds paired with reported DC50
- tested-on: IKZF1 adjoined to nanoluciferase (Nluc) (Homo sapiens (Human))
- assay-remarks: IKZF1 Dual Luciferase Assay
- Assay type: cell-based
- condition: 4 hours; read-out: Nluc/Fluc IKZF1 IC50

compound | value-reported
Cc1nc2ccccc2c(=O)n1C1CC(=O)NC1=O (stereo not drawn) | > 50 µM
O=C1CCC(N2C(=O)c3cccc(O)c3C2=O)C(=O)N1 (stereo not drawn) | > 50 µM

For the next question, use this compound.
Form: Entry = CC(C)Nc1ccc2c(c1)C(=O)N(C1CCC(=O)NC1=O)C2=O (stereo not drawn) | System = IKZF1 adjoined to nanoluciferase (Nluc) (Homo sapiens (Human)) | DC50 = ____
> 50 µM

----------
- tested-on: CRBN-DDB1/BRD4 (Homo sapiens (Human), UniProt O60885+Q96SW2)
- assay-remarks: CRBN-DDB1/BRD4 Dimerization Assay;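 note: AlphaScreen proximity signal between GST-tagged BRD4 and CRBN-DDB1 with glutathione donor and nickel chelate acceptor beads, read after 1 hr compound incubation at room temperature, values from Gaussian curve fit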
- Format: binding
- condition: Gaussian fit parameter of dimerization signal
readout: Dimer SD

compound | readout | value-reported
Cc1c(C(=O)NCCCCCCCCNC(=O)COc2cccc3c2C(=O)N(C2CCC(=O)NC2=O)C3=O)sc2c1C(c1ccc(Cl)cc1)=N[C@@H](CC(=O)NCCCN1CCN(C)CC1)c1nnc(C)n1-2 (some centres unmarked) | Dimer SD | 0.6046

(I) Cc1sc2c(c1C)C(c1ccc(Cl)cc1)=N[C@@H](CC(=O)NCCCCCCOc1cccc3c1C(=O)N(C1CCC(=O)NC1=O)C3=O)c1nnc(C)n1-2 (some centres unmarked)
(II) Cc1sc2c(c1C)C(c1ccc(Cl)cc1)=N[C@@H](CC(=O)NCCCCCCCCOc1cccc3c1C(=O)N(C1CCC(=O)NC1=O)C3=O)c1nnc(C)n1-2 (some centres unmarked)
Lower value of Dimer SD belongs to which: I or II ? Answer with the label corresponding to your selection.
I
(I: 0.7393, II: 1.327)

(1) CC[C@@H]1C(=O)N(C)c2cnc(Nc3ccc(C(=O)NCCCCNC(=O)COc4cccc5c4C(=O)N(C4CCC(=O)NC4=O)C5=O)cc3OC)nc2N1C1CCCC1 (some centres unmarked)
(2) Cc1sc2c(c1C)C(c1ccc(Cl)cc1)=N[C@@H](CC(=O)NCCCCOc1cccc3c1C(=O)N(C1CCC(=O)NC1=O)C3=O)c1nnc(C)n1-2 (some centres unmarked)
(3) Cc1sc2c(c1C)C(c1ccc(Cl)cc1)=N[C@@H](CC(=O)NCCCCCCNC(=O)COc1cccc3c1C(=O)N(C1CCC(=O)NC1=O)C3=O)c1nnc(C)n1-2 (some centres unmarked)
(4) COc1cc(C(=O)NCCCOCCOCCOCCCNC(=O)COc2cccc3c2C(=O)N(C2CCC(=O)NC2=O)C3=O)ccc1Nc1ncc2c(n1)N(C)c1ccccc1C(=O)N2C (centres unmarked)
Descending sort on Dimer SD required. List the labels in the requested order.
4, 2, 1, 3

(1) Cc1sc2c(c1C)C(c1ccc(Cl)cc1)=N[C@@H](CC(=O)NCCCN1CCN(C(=O)CCCCCNC(=O)COc3cccc4c3C(=O)N(C3CCC(=O)NC3=O)C4=O)CC1)c1nnc(C)n1-2 (some centres unmarked)
(2) Cc1c(CC#N)sc2c1C(c1ccc(Cl)cc1)=N[C@@H](CC(=O)NCCCCNC(=O)COc1cccc3c1C(=O)N(C1CCC(=O)NC1=O)C3=O)c1nnc(C)n1-2 (some centres unmarked)
Lower value of Dimer SD belongs to which: 1 or 2 ? Answer with the label corresponding to your selection.
1
